Biological target: CRTH2 (Homo sapiens (Human), UniProt Q9Y5Y4)
Sequence (Q9Y5Y4 whole entry): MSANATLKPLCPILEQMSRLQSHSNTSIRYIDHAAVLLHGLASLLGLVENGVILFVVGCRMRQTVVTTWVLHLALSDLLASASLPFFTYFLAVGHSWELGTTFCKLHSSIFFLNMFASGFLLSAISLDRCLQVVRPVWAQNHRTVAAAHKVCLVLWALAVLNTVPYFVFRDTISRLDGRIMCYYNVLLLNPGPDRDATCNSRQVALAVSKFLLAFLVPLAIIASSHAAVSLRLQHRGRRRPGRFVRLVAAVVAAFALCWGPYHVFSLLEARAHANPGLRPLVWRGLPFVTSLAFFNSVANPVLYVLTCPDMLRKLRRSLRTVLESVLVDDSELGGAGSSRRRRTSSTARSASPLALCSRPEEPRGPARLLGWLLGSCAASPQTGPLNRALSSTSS
Assay: CRTH2 receptor binding inhibitory activity ([3H]-PGD2 displacement, membranes of CRTH2-expressing K562 cell)
Conditions: CRTH2 receptor binding, [3H]-PGD2 displacement, membrane of CRTH2-expressing K562 cell; categorized AAAA/AAA; read-out: Ki
// reported Ki per item

These recorded examples may help you get a feel for the data.
{"molecule": "CCS(=O)(=O)CCOc1ccc(S(=O)(=O)N2C[C@@H](C)[C@@H](n3nc(CC(=O)O)c4ccccc43)C2)cc1 [Compound I-305]", "test.system": "CRTH2 (Homo sapiens (Human), UniProt Q9Y5Y4)", "Ki": "100 to 5000 nM"}
{"molecule": "CC(C)Oc1ccc(S(=O)(=O)N2C[C@H](n3nc(CC(=O)O)c4ccc(Cl)cc43)C[C@@H]2C)cc1 [Compound I-95]", "test.system": "CRTH2 (Homo sapiens (Human), UniProt Q9Y5Y4)", "Ki": "< 100 nM"}
{"molecule": "COc1ccc2c(c1)c(CC(=O)O)nn2[C@H]1CN(S(=O)(=O)c2ccc(OC(C)C)cc2)C[C@H]1C [Compound I-267]", "test.system": "CRTH2 (Homo sapiens (Human), UniProt Q9Y5Y4)", "Ki": "100 to 5000 nM"}
{"molecule": "CCOc1ccc(S(=O)(=O)N2C[C@@H](C)[C@@H](n3nc(CC(=O)O)c4cc(C#N)ccc43)C2)cn1 [Compound I-159]", "test.system": "CRTH2 (Homo sapiens (Human), UniProt Q9Y5Y4)", "Ki": "100 to 5000 nM"}
{"molecule": "CC(C)Oc1ccc(S(=O)(=O)N2C[C@H](n3nc(CC(=O)O)c4ccc(F)cc43)C[C@@H]2COc2ccc(O)cc2)cc1 [Compound I-347]", "test.system": "CRTH2 (Homo sapiens (Human), UniProt Q9Y5Y4)", "Ki": "100 to 5000 nM"}

Quick one: Ki of C[C@H]1CN(S(=O)(=O)c2ccc(OC(F)F)cc2)C[C@@H]1n1nc(CC(=O)O)c2ccccc21 [Compound I-194] ? < 100 nM

Quick one: Ki of COCCOCCOC[C@H]1C[C@@H](n2nc(CC(=O)O)c3ccc(F)cc32)CN1S(=O)(=O)c1ccc(OC(C)C)cc1 [Compound I-291] ? 100 to 5000 nM

Quick one: Ki of CC(C)Oc1ccc(S(=O)(=O)N2C[C@@H](C)[C@@H](n3nc(CC(=O)O)c4ccc(Cl)cc43)C2)cc1 [Compound I-135] ? < 100 nM

Quick one: Ki of CC(C)Oc1ccc(S(=O)(=O)N2C[C@H](O)[C@@H](n3nc(CC(=O)O)c4ccc(F)cc43)C2)cc1 [Compound I-25] ? < 100 nM

Quick one: Ki of CCOc1ccc(S(=O)(=O)N2C[C@@H](C)[C@@H](n3cc(CC(=O)O)c4ccc(-c5ncco5)cc43)C2)cc1 [Compound I-282] ? < 100 nM

Quick one: Ki of CCOc1ccc(S(=O)(=O)N2C[C@@H](C)[C@@H](n3nc(CC(=O)O)c4cc(C#N)ccc43)C2)cc1 [Compound I-160] ? 100 to 5000 nM

Quick one: Ki of CCOc1ccc(S(=O)(=O)N2C[C@@H](C)[C@@H](n3nc(CC(=O)O)c4ccc(C#N)cc43)C2)cc1 [Compound I-172] ? < 100 nM

Quick one: Ki of Cc1ccc2c(CC(=O)O)nn([C@@H]3C[C@H](C)N(S(=O)(=O)c4ccc(OC(C)C)cc4)C3)c2c1 [Compound I-94] ? < 100 nM

Quick one: Ki of CC(C)Oc1ccc(S(=O)(=O)N2CC[C@@H](n3nc(CC(=O)O)c4ccc(F)cc43)[C@H]2C)cc1 [Compound I-1] ? 100 to 5000 nM
